Test: qHTS of pediatric cancer cell lines to identify multiple opportunities for drug repurposing: Primary screen for SJ-GBM2 cells (AID 1347091); note: potency is the fitted concentration of half-maximal effect
Conditions: SJ-GBM2 viability, CellTiter-Glo luminescence, 48 h; series mostly up to 46 µM
Records with an inconclusive call do not appear. Active and inactive are the calls of the source. Calls come from the whole dose curve; as a rule, active = well fitted cell-killing curve with a large enough effect; inconclusive = small, poorly fitted or top-dose-only effect; inactive = no such curve, though single readings can be large or run the other way.

{"columns": ["COMPOUND", "Potency"],
 "data": [
  ["COc1cc2c(Oc3ccc(NC(=O)C4(C(=O)Nc5ccc(F)cc5)CC4)cc3F)ccnc2cc1OCCCN1CCOCC1", "11.8 nM (active)"],
  ["CC(C)[C@H](C(=O)Nc1ccc(C(=O)NO)cc1)c1ccccc1", "590 nM (active)"],
  ["C=C1C(=CC=C2CCC[C@]3(C)[C@@H]([C@H](C)C=C[C@H](C)C(C)C)CC[C@@H]23)C[C@@H](O)C[C@@H]1O", "743 nM (active)"],
  ["CN1CCN(c2ccc3nc(-c4c(N)c5c(F)cccc5[nH]c4=O)[nH]c3c2)CC1", "20900 nM (active)"],
  ["COc1cc(Nc2ncc(F)c(Nc3ccc4c(n3)N(COP(=O)(O)O)C(=O)C(C)(C)O4)n2)cc(OC)c1OC", "1480 nM (active)"],
  ["COc1cc2c(Oc3ccc4[nH]c(C)cc4c3F)ncnc2cc1OCCCN1CCCC1", "6620 nM (active)"]
]}

* * *

Assay: qHTS drug screen for cell cycle checkpoint inhibitors in PARPi-resistant BRCA-mutant ovarian cancer cell lines. (AID 1963452)
Conditions: PEO1/OlaR viability, CellTiter-Glo luminescence, 96 h; hits give low values
I'd appreciate it if you marked entries TRUE when Z-AUC is lower than -0.5 and FALSE when it is not.

{"columns": ["MOLECULE", "GROUP"],
 "data": [
  ["CC(C)(C)c1cc(NC(=O)Nc2ccc(-c3cn4c(n3)sc3cc(OCCN5CCOCC5)ccc34)cc2)no1", "FALSE"],
  ["Cc1nc(N)ncc1-c1nc(N2CCOCC2)c2sc(C(C)(C)O)cc2n1", "FALSE"],
  ["CNC(=O)c1c(F)cccc1Nc1nc(Nc2cc3c(cc2OC)CCN3C(=O)CN(C)C)nc2[nH]ccc12", "FALSE"],
  ["COc1cc(-c2nn(C3CCC(N4CCN(C(C)=O)CC4)CC3)c3ncnc(N)c23)ccc1NC(=O)c1cc2ccccc2n1C (centres undefined)", "TRUE"],
  ["CC(C)(O)c1cc2nc(-c3cnc(N)nc3)nc(N3CCOCC3)c2s1", "TRUE"],
  ["COc1ccc2c(c1)CC[C@@H](CN(C)CC(=O)O)[C@H]2c1ccccc1", "FALSE"],
  ["CNC(=O)CN1CCC(Oc2cc3c(Nc4cccc(Cl)c4F)ncnc3cc2OC)CC1", "FALSE"],
  ["Nc1cccc(-c2cc3c(Oc4cccc(O)c4)ncnc3[nH]2)c1", "TRUE"],
  ["COc1c(OCCCN2CCOCC2)ccc2c3n(c(=NC(=O)c4cnc(N)nc4)nc12)CCN3", "TRUE"],
  ["Cc1cc(Nc2cc(CN3CCOCC3)c3nc(C)c(Cc4ccc(Cl)cc4F)n3n2)n[nH]1", "FALSE"],
  ["Cc1[nH]nc2ccc(-c3cncc(OC[C@@H](N)Cc4ccccc4)c3)cc12", "TRUE"],
  ["COc1cc(OC2CCN(C)CC2)ccc1Nc1ncc2c(n1)n(C1CCCC1)c(=O)n2C", "FALSE"],
  ["CC1COC2(CCN(c3nc(=O)c4cc(C(F)(F)F)cc([N+](=O)[O-])c4s3)CC2)O1 (centres undefined)", "FALSE"]
]}
